molecular target: D3R (Homo sapiens, UniProt P35462); settings: result in words
Sequence (P35462 whole entry): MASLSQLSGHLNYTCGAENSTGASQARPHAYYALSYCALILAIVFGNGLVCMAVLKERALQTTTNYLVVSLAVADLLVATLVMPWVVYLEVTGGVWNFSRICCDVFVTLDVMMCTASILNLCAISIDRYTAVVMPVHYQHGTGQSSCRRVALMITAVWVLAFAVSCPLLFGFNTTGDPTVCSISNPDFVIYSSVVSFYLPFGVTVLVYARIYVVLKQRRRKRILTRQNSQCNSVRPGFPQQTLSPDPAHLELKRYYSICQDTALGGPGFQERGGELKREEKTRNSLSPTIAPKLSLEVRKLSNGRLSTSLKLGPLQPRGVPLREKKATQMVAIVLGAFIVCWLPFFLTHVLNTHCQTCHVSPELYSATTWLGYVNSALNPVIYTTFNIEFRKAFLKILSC
MEASUREMENT NAME: binding affinity at D3R (in words)

CCc1cc(Cl)c(OC)c(C(=O)NC[C@@H]2C[C@@H](OCCCCO)CN2)c1O [compound 51]	low nanomolar range
CCc1cc(Cl)c(OC)c(C(=O)NC[C@@H]2C[C@@H](OCCCc3ccccc3)CN2)c1O [50a]	low nanomolar range
CCc1cc(Cl)c(OC)c(C(=O)NC[C@@H]2C[C@@H](OCCCCOCc3ccccc3)CN2)c1O [50b]	low nanomolar range

----------
molecular target: human D2L receptor (Homo sapiens, UniProt P14416); conditions: result in words
Sequence (P14416 whole entry): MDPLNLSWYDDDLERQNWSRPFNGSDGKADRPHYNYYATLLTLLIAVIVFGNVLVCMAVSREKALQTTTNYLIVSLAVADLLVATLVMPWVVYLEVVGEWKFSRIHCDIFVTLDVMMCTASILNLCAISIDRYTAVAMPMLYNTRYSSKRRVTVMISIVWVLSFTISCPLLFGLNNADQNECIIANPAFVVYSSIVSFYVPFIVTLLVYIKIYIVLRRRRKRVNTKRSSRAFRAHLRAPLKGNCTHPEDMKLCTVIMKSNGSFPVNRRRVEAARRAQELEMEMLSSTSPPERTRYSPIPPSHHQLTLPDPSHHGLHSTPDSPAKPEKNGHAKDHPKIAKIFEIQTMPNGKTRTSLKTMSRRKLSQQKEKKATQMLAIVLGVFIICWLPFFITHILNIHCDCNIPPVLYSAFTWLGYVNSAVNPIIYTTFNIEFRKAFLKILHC
MEASUREMENT NAME: binding affinity at D2R (in words)

CCc1cc(Cl)c(OC)c(C(=O)NC[C@@H]2C[C@@H](OCCCCO)CN2)c1O	low nanomolar range
CCc1cc(Cl)c(OC)c(C(=O)NC[C@@H]2C[C@@H](OCCCc3ccccc3)CN2)c1O [50a]	low nanomolar range
CCc1cc(Cl)c(OC)c(C(=O)NC[C@@H]2C[C@@H](OCCCCOCc3ccccc3)CN2)c1O [50b]	low nanomolar range
